Form field: Ki (one value per entry).
# target-entity: human Histamine H1 receptor (Homo sapiens, UniProt P35367)
# Construct: expressed in transfected cells
# Sequence (P35367 whole entry): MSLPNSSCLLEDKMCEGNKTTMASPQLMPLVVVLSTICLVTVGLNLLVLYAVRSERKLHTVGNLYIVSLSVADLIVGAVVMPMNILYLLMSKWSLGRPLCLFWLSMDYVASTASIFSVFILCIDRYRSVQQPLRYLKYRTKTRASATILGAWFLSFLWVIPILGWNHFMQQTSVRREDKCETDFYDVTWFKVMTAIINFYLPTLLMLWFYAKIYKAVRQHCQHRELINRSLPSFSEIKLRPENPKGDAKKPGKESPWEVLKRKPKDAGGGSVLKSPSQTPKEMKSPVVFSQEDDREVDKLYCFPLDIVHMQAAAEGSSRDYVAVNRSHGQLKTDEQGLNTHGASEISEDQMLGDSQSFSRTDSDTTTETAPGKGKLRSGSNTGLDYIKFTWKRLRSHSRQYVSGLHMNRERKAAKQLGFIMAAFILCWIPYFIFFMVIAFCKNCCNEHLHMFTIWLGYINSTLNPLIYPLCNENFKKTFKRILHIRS
# method-notes: Binding affinity at the human histamine H1 receptor
# condition-context: Table 3c; read-out: hH1 Ki
The number alone won't do; follow it with the unit.

Consider the worked cases shown below.
COCC1=C(C(=O)NCCCN2CCC(c3cccc(NC(=O)CC(C)C)c3)CC2)[C@@H](c2ccc(F)c(F)c2)NC(=O)N1 [Example 47]	3.25 µM
CC(C)C(=O)Nc1cccc(C2CCN(CC[C@@H](Oc3cccc(Cl)c3)c3ccccc3)CC2)c1 [Example 124]	0.329 µM
COCC1=C(C(=O)NCCCN2CCC(c3cccc(NC(=O)C(C)C)c3)CC2)[C@@H](c2ccc(F)c(F)c2)NC(=O)N1 [Example 50]	7.47 µM
CC(=O)c1cccc(O[C@@H](CCN2CCC(c3cccc(NC(=O)C(C)C)c3)CC2)c2ccccc2)c1 [Example 141]	3.82 µM
CCCC(=O)Nc1cccc(C2CCN(CCCNC(=O)C3=C(COC)NC(=O)N[C@@H]3c3ccc(F)c(F)c3)CC2)c1 [Example 45]	4.43 µM
CC(C)C(=O)Nc1cccc(C2CCN(CC[C@H](Oc3ccccc3F)c3ccccc3)CC2)c1 [Example 127]	1.71 µM

Shift focus to the following entry.
# compound CC(C)C(=O)Nc1cccc(C2CCN(CC[C@@H](Oc3ccccc3[N+](=O)[O-])c3ccccc3)CC2)c1 [Example 133] ; its Ki = 4.18 µM

----------
Form field: pKi (one value per entry).
# target-entity: human GALR3 receptor (Homo sapiens)
# Construct: expressed in transfected cells
# Sequence (O60755 whole entry): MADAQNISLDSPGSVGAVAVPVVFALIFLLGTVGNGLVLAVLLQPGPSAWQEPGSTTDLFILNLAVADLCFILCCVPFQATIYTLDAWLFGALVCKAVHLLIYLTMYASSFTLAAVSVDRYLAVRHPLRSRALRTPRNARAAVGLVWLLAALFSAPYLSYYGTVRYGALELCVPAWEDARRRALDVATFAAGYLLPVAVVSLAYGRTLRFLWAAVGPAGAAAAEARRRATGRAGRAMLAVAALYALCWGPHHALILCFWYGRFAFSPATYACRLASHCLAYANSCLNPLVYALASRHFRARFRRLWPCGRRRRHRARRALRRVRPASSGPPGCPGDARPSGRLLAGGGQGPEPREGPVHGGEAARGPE
# method-notes: Binding affinity at the human GALR3 receptor
pKi: −log10 of the molar value. Counter-ions that a name gives are not always drawn.

Consider the worked cases shown below.
COC(=O)C1=C(C)NC(=O)N(C(=O)NCCCN2CCC3(CC2)OCc2ccccc23)C1c1ccc(F)c(F)c1 (stereo not drawn)	< 4.30
O=C(CCCN1CCC(O)(c2ccc(Cl)cc2)CC1)c1ccc(Cl)cc1	< 4.30

Shift focus to the following entry.
# compound COC(=O)C1=C(C)NC(=O)N(C(=O)NCCCN2CCC3(CC2)OCc2ccccc23)C1c1ccc2nonc2c1 (single isomer, unassigned) [Example 18, HYDROCHLORIDE] ; its pKi = < 4.30

----------
Form field: log10 of Ki (one value per entry).
# target-entity: human Alpha-1a Adrenergic receptor (Homo sapiens)
# Construct: expressed in transfected cells
# Sequence (P35348 whole entry): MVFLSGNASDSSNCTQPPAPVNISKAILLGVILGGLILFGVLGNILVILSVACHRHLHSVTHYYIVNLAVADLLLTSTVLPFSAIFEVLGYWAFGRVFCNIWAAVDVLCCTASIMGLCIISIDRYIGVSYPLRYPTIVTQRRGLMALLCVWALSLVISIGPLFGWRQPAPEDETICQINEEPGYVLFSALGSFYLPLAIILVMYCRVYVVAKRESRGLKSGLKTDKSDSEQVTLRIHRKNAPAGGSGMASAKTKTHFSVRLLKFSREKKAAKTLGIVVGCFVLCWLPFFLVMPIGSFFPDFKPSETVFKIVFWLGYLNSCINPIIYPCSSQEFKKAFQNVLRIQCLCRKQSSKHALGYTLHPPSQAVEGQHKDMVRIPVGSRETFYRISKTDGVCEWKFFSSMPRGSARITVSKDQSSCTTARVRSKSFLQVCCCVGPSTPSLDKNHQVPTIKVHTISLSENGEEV
# method-notes: Binding affinity at the human alpha-1A adrenergic receptor
# condition-context: Table 3c; read-out: hAlpha-1a Ki
// stored as log10 of Ki expressed in nM

CC(C)C(=O)Nc1cccc(C2CCN(CC[C@H](Oc3ccc(Br)cc3)c3ccccc3)CC2)c1 [Example 116]	1.35
CCC1=C(C(=O)OCc2ccccc2)C(c2ccc(F)cc2F)N(C(=O)NCCCN2CCC(c3cccc(NC(C)=O)c3)CC2)C(=O)N1 (stereo not shown) [Example 52]	2.30
CC(C)C(=O)Nc1cccc(C2CCN(CC[C@H](Oc3ccccc3)c3ccccc3)CC2)c1 [Example 105]	2.15
CC(C)C(=O)Nc1cccc(C2CCN(CCCC(=O)c3ccccc3)CC2)c1 [Example 74]	2.06
COC(=O)C1=C(C)N=C(SCc2ccc(OC)cc2)N(C(=O)NCCCN2CCC(c3cccc(NC(C)=O)c3)CC2)C1c1ccc([N+](=O)[O-])cc1 (stereo not shown) [Example 54]	4.05
COC(=O)C1=C(C)NC(=O)N(C(=O)NCCCN2CCC(c3cccc(NC(C)=O)c3)CC2)[C@H]1c1ccc(F)c(F)c1 [Example 56]	2.48

Shift focus to the following entry.
# compound CC(C)C(=O)Nc1cccc(C2CCN(CC[C@@H](Oc3ccccc3[N+](=O)[O-])c3ccccc3)CC2)c1 [Example 133] ; its log10 of Ki = 2.22

----------
# target-entity: rat MCH1 receptor (Rattus norvegicus, UniProt P97639)
# Construct: expressed in transfected cells
# Sequence (P97639 whole entry): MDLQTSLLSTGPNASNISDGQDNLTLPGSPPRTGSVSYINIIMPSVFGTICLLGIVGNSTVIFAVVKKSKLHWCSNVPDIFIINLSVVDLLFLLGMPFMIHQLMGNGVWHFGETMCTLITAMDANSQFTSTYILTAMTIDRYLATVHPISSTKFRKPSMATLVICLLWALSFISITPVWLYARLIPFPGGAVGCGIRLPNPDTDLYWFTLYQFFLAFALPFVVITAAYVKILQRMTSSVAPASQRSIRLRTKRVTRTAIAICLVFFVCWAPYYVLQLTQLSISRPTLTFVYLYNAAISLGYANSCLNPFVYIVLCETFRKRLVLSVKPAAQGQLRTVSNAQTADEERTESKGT
# method-notes: Binding affinity (Ki) at the rat MCH1 receptor
# condition-context: Examples 38-141; read-out: Ki (nM) rMCH1
assay-metric: Ki (nM)
Give the value in nM but do not write nM after it.

Consider the worked cases shown below.
CC(=O)Nc1cccc(C2CCN(CCCNC(=O)N3C(=O)NC(C)=C(C(C)=O)C3c3cc(F)c(F)c(F)c3)CC2)c1 (centres unmarked)	0.79
CC(C)C(=O)Nc1cccc(C2CCN(CC[C@@H](Oc3cccc(Cl)c3)c3ccccc3)CC2)c1	9.3
COC(=O)C1=C(C)N=C(SCc2ccc(OC)cc2)N(C(=O)NCCCN2CCC(c3cccc(NC(C)=O)c3)CC2)C1c1ccc([N+](=O)[O-])cc1 (centres unmarked)	29.9
CC(=O)Nc1cccc(C2CCN(CCCC(=O)c3cccs3)CC2)c1	654
COC(CCN1CCC(c2cccc(NC(=O)C(C)C)c2)CC1)c1ccc(Cl)cc1 (centres unmarked)	11.5

# molecule `CC(C)C(=O)Nc1cccc(C2CCN(CCCCc3ccccc3)CC2)c1` ; its Ki = 50

# molecule `Cc1ccc(C(=O)CCCN2CCC(c3cccc(NC(=O)C4CCCCC4)c3)CC2)cc1C` ; its Ki = 768

# molecule `CC(C)C(=O)Nc1cccc(C2CCN(CC[C@H](Oc3ccc(C#N)cc3)c3ccccc3)CC2)c1` ; its Ki = 2.01

----------
# target-entity: rat 5HT2C receptor (Rattus norvegicus, UniProt P08909)
# Construct: expressed in transfected cells
# Sequence (P08909 33-460): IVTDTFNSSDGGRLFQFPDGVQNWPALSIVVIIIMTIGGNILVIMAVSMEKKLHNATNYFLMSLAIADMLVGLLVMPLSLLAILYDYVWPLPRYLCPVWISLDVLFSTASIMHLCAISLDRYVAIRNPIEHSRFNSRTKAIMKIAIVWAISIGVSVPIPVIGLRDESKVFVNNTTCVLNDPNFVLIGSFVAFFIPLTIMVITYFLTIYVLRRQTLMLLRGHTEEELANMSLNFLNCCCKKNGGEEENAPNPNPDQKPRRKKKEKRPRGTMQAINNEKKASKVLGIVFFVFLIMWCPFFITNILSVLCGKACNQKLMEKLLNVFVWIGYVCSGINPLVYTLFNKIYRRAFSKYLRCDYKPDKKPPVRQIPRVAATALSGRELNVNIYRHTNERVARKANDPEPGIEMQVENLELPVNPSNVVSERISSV
# method-notes: Binding affinity at the rat 5HT2C receptor
# condition-context: Table 3a; read-out: r5HT2C Ki
Counter-ions that a name gives are not always drawn.
assay-metric: Ki (µM)
Give the value in µM but do not write µM after it.

Consider the worked cases shown below.
COCC1=C(C(=O)OC)C(c2ccc(F)c(F)c2)N(C(=O)NCCCN2CC=C(c3cccc(NC(C)=O)c3)CC2)C(=O)N1 (stereo not shown)	39.8
O=C(CCCN1CCC(NC(=O)c2ccccc2)CC1)c1ccc(Cl)cc1	34.1
CCN1c2ccc(/C=C3\SC(=S)NC3=O)cc2C(C)=CC1(C)C	41

# compound COC(=O)C1=C(C)NC(=O)N(C(=O)NCCCN2CCC3(CC2)OCc2ccccc23)C1c1ccc2nonc2c1 (single isomer, unassigned) [Example 18, HYDROCHLORIDE] ; its Ki = 32.6

# compound `COCC1=C(C(=O)OC)[C@H](c2ccc(F)c(F)c2)N(C(=O)NCCCN2CCC(c3cccc(NC(C)=O)c3)CC2)C(=O)N1` ; its Ki = 29.6

# compound CCCCN(CCCC)c1ccc(CN2CCC(CNC(=O)N3C(=O)NC(C)=C(C(=O)OC)C3c3ccc4nonc4c3)CC2)cc1 (stereo not shown) ; its Ki = 25.5

# compound `CCCCN(CCCC)c1ccc(CNC[C@H]2CC[C@H](NC(=O)c3cccc4ccccc34)CC2)cc1` ; its Ki = 25

# compound COC(=O)C1=C(C)NC(=O)N(C(=O)NCCCN2CCC3(CC2)OCc2ccccc23)C1c1ccc(F)c(F)c1 (stereo not shown) ; its Ki = 15.1

# compound COCC1=C(C(=O)OC)C(c2ccc(F)c(F)c2)N(C(=O)NCCCN2CCC(c3cccc4ccccc34)CC2)C(=O)N1 (single isomer, unassigned; (+)) ; its Ki = 0.663

# compound `CN1CN(c2ccccc2)C2(CCN(CCCC(=O)c3ccc(F)cc3)CC2)C1=O` ; its Ki = 8.86

# compound CCC1=C(C(=O)O)C(c2ccc(F)c(F)c2)N(C(=O)NCCCN2CCC3(CC2)OCc2ccccc23)C(=O)N1 (single isomer, unassigned; (+)) [Example 4, HYDROCHLORIDE] ; its Ki = 34.8

----------
# target-entity: rat 5HT2C receptor (Rattus norvegicus)
# Construct: expressed in transfected cells
# method-notes: Binding affinity at the rat 5HT2C receptor
# condition-context: read-out: r5HT2C Ki; Table 3b
pKi: −log10 of the molar value.
assay-metric: pKi

Measured pKi for this entry O=C(CCCN1CCC(O)(c2ccc(Cl)cc2)CC1)c1ccc(Cl)cc1 [Example 29] on rat 5HT2C receptor (Rattus norvegicus): < 4.30

Origin of measurements: patent US20040038855A1
